Tested on: Hep-G2
Assay: IC50 cell-based assay, adherent cells, Hep-G2
Conditions: Homo sapiens, HepG2, Liver, hepatocellular carcinoma, 72 hours, read-out: IC50 of Compounds in Adherent Cell Types
IC50 overview

Input: Name the reported IC50 value associated with the compound O=C(Nc1cc(F)cc(C(F)(F)F)c1)c1cc(-c2ccc(Br)cc2)oc1C(F)(F)F
Output: 10 to 20 µM

Input: Subsequent entry: O=C(Nc1cc(C(F)(F)F)cc(C(F)(F)F)c1)c1cc(-c2ccc(Br)cc2)oc1C(F)(F)F
Output: 5 to 10 µM

Input: Proceed to O=C(Nc1cc(C(F)(F)F)cc(C(F)(F)F)c1)c1cc(-c2ccc(Cl)cc2)oc1C(F)(F)F
Output: 5 to 10 µM

Input: And the next one, O=C(Nc1cc(F)cc(C(F)(F)F)c1)c1cc(-c2ccccc2)oc1C(F)(F)F ?
Output: > 20 µM

Input: And the next one, O=C(Nc1cc(C(F)(F)F)cc(C(F)(F)F)c1)c1cc(-c2ccccc2)oc1C(F)(F)F ?
Output: 5 to 10 µM

Input: Also O=C(Nc1cc(F)cc(C(F)(F)F)c1)c1cc(-c2ccc(Cl)cc2)oc1C(F)(F)F ?
Output: 10 to 20 µM
